- testMethodNotes: Pharmacokinetics of PXD in rat plasma (HPLC-UV) after 14 days pretreatment with saline, silybinin or CG
- Assay type: in vivo, rats
- conditionDetails: rat, plasma, po, 40 mg/kg, Group A (control: saline 14 days, then single oral 40 mg/kg PXD), rats, n = 6, mean ± SD; read-out: CLz/F (converted)
measuredProperty: CL/F (mL/min/kg)
Hi! Could you send only the number? It should be in mL/min/kg, unit omitted.

Requested field: CL/F. Item: FC(F)(F)c1ccc(CNc2ccc(Cc3c[nH]c4ncc(Cl)cc34)cn2)cn1 [PXD, Pexidartinib]
4.83

====

- testMethodNotes: Pharmacokinetics of PXD in rat plasma (HPLC-UV) after 14 days pretreatment with saline, silybinin or CG
- Type: in vivo, rats
- conditionDetails: rat, plasma, po, 40 mg/kg, Group B (silybinin aqueous solution 150 mg/kg, containing silybinin 21 mg/kg, 14 days, then single oral 40 mg/kg PXD), rats, n = 6, mean ± SD; read-out: CLz/F (converted)
measuredProperty: CL/F (mL/min/kg)
Hi! Could you send only the number? It should be in mL/min/kg, unit omitted.

Requested field: CL/F. Item: FC(F)(F)c1ccc(CNc2ccc(Cc3c[nH]c4ncc(Cl)cc34)cn2)cn1
3.83
